FYI, the data here is from patent US10287292B2.

Molecular target: CXCR7 receptor (Homo sapiens (Human), UniProt P25106)
Sequence (P25106 whole entry): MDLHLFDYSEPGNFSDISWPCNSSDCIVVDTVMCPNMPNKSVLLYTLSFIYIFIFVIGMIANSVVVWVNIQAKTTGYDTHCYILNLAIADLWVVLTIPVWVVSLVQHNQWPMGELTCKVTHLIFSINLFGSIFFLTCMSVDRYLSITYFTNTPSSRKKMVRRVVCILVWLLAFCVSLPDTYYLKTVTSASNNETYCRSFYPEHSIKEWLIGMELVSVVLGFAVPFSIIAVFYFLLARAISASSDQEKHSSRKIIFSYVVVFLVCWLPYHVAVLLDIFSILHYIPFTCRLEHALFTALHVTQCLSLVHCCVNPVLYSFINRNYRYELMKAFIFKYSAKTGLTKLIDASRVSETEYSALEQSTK
Assay: Serum Binding Analysis: displacement of 125I-labeled SDF-1 from CXCR7 in 100% human serum
Conditions: 125I SDF-1 displacement in 100% human serum, MCF-7 and/or MDA-MB-435S CXCR7 transfected cells, 3 hrs at 4° C.; read-out: Avg Ser IC50
# maps each entry to its IC50

// query Looking for the measured IC50 of Cc1cn2ccnc2c(N2CC[C@H](NC(=O)c3ncn(-c4ccccc4)n3)C2)n1 [Compound 1.032] , can you help?
// result ≤ 0.5 µM

// query Looking for the measured IC50 of Cc1ccn2ccnc(N3CC[C@H](NC(=O)c4noc(-c5ccccc5)n4)C3)c12 [Compound 1.111] , can you help?
// result 0.5 to 2.5 µM

// query Looking for the measured IC50 of Cc1cn2cccc2c(N2CC[C@H](NC(=O)c3ccn(-c4ccc(Cl)cc4)n3)C2)n1 [Compound 1.029] , can you help?
// result ≤ 0.5 µM

// query Looking for the measured IC50 of Cc1ccn2ccnc(N3CC[C@H](NC(=O)c4coc(-c5ccc(F)cc5)n4)C3)c12 [Compound 1.116] , can you help?
// result 0.5 to 2.5 µM

// query Looking for the measured IC50 of Cc1ccccc1-n1ccc(C(=O)N[C@H]2CCN(c3nccn4cccc34)C2)n1 [Compound 1.123] , can you help?
// result ≤ 0.5 µM
